subject_of_test: human RORgT (Homo sapiens)
run_description: RORgT Gal4 Luciferase Reporter Gene Assay
run_parameters: engineered Jurkat cells overexpressing RORgT (LBD or full length) fused with Gal4 Luc reporter; 18 hours at 37° C.; luminescence
pEC50: −log10 of the molar value.
Answer 0 if pEC50 is under 8, and 1 if it is 8 or more.

test_smiles: NS(=O)(=O)CC(=O)N1CC[C@@]2(S(=O)(=O)c3ccc(F)cc3)c3ccc(OCc4cc(F)ccc4Cl)cc3CC[C@@H]12
subject_of_test: human RORgT (Homo sapiens)
class: 0

test_smiles: O=C(C1CCS(=O)(=O)CC1)N1CC[C@@]2(S(=O)(=O)c3ccc(F)cc3)c3ccc(Oc4ccccc4)cc3CC[C@@H]12
subject_of_test: human RORgT (Homo sapiens)
class: 1

test_smiles: O=C(O)[C@H]1CC[C@H](C(=O)N2CC[C@@]3(S(=O)(=O)c4ccc(F)cc4)c4ccc(COc5c(Cl)cccc5Cl)cc4CC[C@@H]23)CC1
subject_of_test: human RORgT (Homo sapiens)
class: 1

test_smiles: O=C(C1CCS(=O)(=O)CC1)N1CC[C@@]2(S(=O)(=O)c3ccccc3)c3ccc(OCc4ccc(F)cc4Cl)cc3CC[C@@H]12
subject_of_test: human RORgT (Homo sapiens)
class: 0

test_smiles: O=C(O)[C@H]1CC[C@H](C(=O)N2CC[C@@]3(S(=O)(=O)c4ccc(F)cc4)c4ccc(OCc5ccncc5Cl)cc4CC[C@@H]23)CC1
subject_of_test: human RORgT (Homo sapiens)
class: 0

* * *

subject_of_test: human RORgT (Homo sapiens)
run_description: RORgT Gal4 Luciferase Reporter Gene Assay
run_parameters: engineered Jurkat cells overexpressing RORgT (LBD or full length) fused with Gal4 Luc reporter; 18 hours at 37° C.; luminescence
pEC50: −log10 of the molar value.
We begin with a simple list: items and their reported pEC50.

compound: CN1CCC(C(=O)N2CC[C@@]3(S(=O)(=O)c4ccc(F)cc4)c4ccc(OCc5cc(F)c(F)cc5Cl)cc4CC[C@@H]23)CC1 [Example 212]
pEC50: 6.80
--
compound: CS(=O)(=O)N1CCC(C(=O)N2CC[C@@]3(S(=O)(=O)c4ccc(F)cc4)c4ccc(OCc5c(F)cccc5Cl)cc4CC[C@@H]23)CC1 [Example 164]
pEC50: 7.62
--
compound: O=C(Nc1ccnnc1)N1CC[C@@]2(S(=O)(=O)c3ccccc3)c3ccc(OCc4c(Cl)cccc4Cl)cc3CC[C@@H]12 [Example 95]
pEC50: 6.71
--
compound: CS(=O)(=O)CC(=O)N1CC[C@@]2(S(=O)(=O)c3ccc(F)cc3)c3ccc(OCc4c(F)cccc4C(F)(F)F)cc3CC[C@@H]12 [Example 188]
pEC50: 7.12
--
compound: O=C(C1CCS(=O)(=O)CC1)N1CC[C@@]2(S(=O)(=O)c3ccc(F)cc3)c3ccc(Cc4ccc(F)cc4)cc3CC[C@@H]12 [Example 41]
pEC50: 8.92
--
compound: O=C(C1CCS(=O)(=O)CC1)N1CC[C@@]2(S(=O)(=O)c3ccc(F)cc3)c3ccc(Cc4c(F)cccc4Cl)cc3CC[C@@H]12 [Example 32]
pEC50: 8.74
--
compound: NC(=O)N1CCC(C(=O)N2CC[C@@]3(S(=O)(=O)c4ccc(F)cc4)c4ccc(OCc5cc(Cl)ccc5Cl)cc4CC[C@@H]23)CC1 [Example 202]
pEC50: 7.82
--
compound: NC(=O)N1CCC(C(=O)N2CC[C@@]3(S(=O)(=O)c4ccccc4)c4ccc(OCc5c(F)cccc5Cl)cc4CC[C@@H]23)CC1 [Example 141]
pEC50: 8.00
--
compound: CC1(C(=O)N2CC[C@@]3(S(=O)(=O)c4ccc(F)cc4)c4ccc(OCc5c(F)cccc5Cl)cc4CC[C@@H]23)CCS(=O)(=O)CC1 [Example 7]
pEC50: 7.66
--
compound: O=C(C1CCS(=O)(=O)C1)N1CC[C@@]2(S(=O)(=O)c3ccccc3)c3ccc(OCc4c(F)cccc4Cl)cc3CC[C@@H]12 (stereo partly drawn) [Example 135]
pEC50: 8.01
--
compound: O=C1CCCN1CC(=O)N1CC[C@@]2(S(=O)(=O)c3ccccc3)c3ccc(OCc4c(Cl)cccc4Cl)cc3CC[C@@H]12 [Example 79]
pEC50: 6.68
--
compound: CN1CCC(C(=O)N2CC[C@@]3(S(=O)(=O)c4ccccc4)c4ccc(OCc5c(Cl)cccc5Cl)cc4CC[C@@H]23)CC1=O (stereo partly drawn) [Example 55]
pEC50: 7.08
--
compound: CS(=O)(=O)NCC(=O)N1CC[C@@]2(S(=O)(=O)c3ccccc3)c3ccc(OCc4c(Cl)cccc4Cl)cc3CC[C@@H]12 [Example 58]
pEC50: 6.23
--
compound: CC(C)(C)OC(=O)N1CC[C@@]2(S(=O)(=O)c3ccc(F)cc3)c3ccc(Cc4ccccc4)cc3CC[C@@H]12 [Example 53]
pEC50: 7.80
--
compound: O=C1CC(C(=O)N2CC[C@@]3(S(=O)(=O)c4ccccc4)c4ccc(OCc5c(F)cccc5Cl)cc4CC[C@@H]23)CN1 (stereo partly drawn) [Example 140]
pEC50: 6.87
--
compound: Cc1ccccc1Cc1ccc2c(c1)CC[C@H]1N(C(=O)C3CCS(=O)(=O)CC3)CC[C@@]21S(=O)(=O)c1ccc(F)cc1 [Example 44]
pEC50: 8.72
--
compound: O=C(CN1CCS(=O)(=O)CC1)N1CC[C@@]2(S(=O)(=O)c3ccc(F)cc3)c3ccc(OCc4cc(F)c(F)cc4Cl)cc3CC[C@@H]12 [Example 221]
pEC50: 7.47
--
compound: O=C(C1CCS(=O)(=O)CC1)N1CC[C@@]2(S(=O)(=O)c3ccccc3)c3ccc(OCc4c(F)cccc4Cl)cc3CC[C@@H]12 [Example 123]
pEC50: 8.15
--
compound: O=C(O)[C@H]1CC[C@H](C(=O)N2CC[C@@]3(S(=O)(=O)c4ccc(F)cc4)c4ccc(CCc5c(Cl)cccc5Cl)cc4CC[C@@H]23)CC1 [Example 2]
pEC50: 8.17
--
compound: O=C(C1CCS(=O)(=O)CC1)N1CC[C@@]2(S(=O)(=O)c3ccccc3)c3ccc(OCc4c(F)ccc(F)c4Cl)cc3CC[C@@H]12 [Example 131]
pEC50: 8.07
--
compound: COC(=O)[C@H]1CC[C@H](C(=O)N2CC[C@@]3(S(=O)(=O)c4ccc(F)cc4)c4ccc(OCc5c(F)cccc5C(F)(F)F)cc4CC[C@@H]23)CC1 [Example 183]
pEC50: 7.32
--
compound: O=C(O)[C@H]1CC[C@H](C(=O)N2CC[C@@]3(S(=O)(=O)c4ccc(F)cc4)c4ccc(OCc5cc(Cl)ccc5Cl)cc4CC[C@@H]23)CC1 [Example 205]
pEC50: 8.02
--
compound: Cc1ccccc1Oc1ccc2c(c1)CC[C@H]1N(C(=O)C3CCS(=O)(=O)CC3)CC[C@@]21S(=O)(=O)c1ccc(F)cc1 [Example 49]
pEC50: 8.74
--
compound: [2H]C([2H])([2H])N1C(=O)CC[C@H]1C(=O)N1CC[C@@]2(S(=O)(=O)c3ccccc3)c3ccc(OCc4c(F)cccc4Cl)cc3CC[C@@H]12 [Example 146]
pEC50: 8.19

* * *

subject_of_test: human RORgT (Homo sapiens)
Construct: expressed in transfected cells
Sequence (P51449 267-516): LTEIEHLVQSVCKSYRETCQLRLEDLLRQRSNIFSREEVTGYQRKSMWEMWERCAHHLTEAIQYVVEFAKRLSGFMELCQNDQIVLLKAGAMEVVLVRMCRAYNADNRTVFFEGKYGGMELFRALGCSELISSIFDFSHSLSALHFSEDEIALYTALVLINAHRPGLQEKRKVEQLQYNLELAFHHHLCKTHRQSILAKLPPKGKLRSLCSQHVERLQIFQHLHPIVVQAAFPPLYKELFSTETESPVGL
run_description: RORgT Gal4 Luciferase Reporter Gene Assay
Assay type: cell-based
run_parameters: engineered Jurkat cells overexpressing RORgT (LBD or full length) fused with Gal4 Luc reporter; 18 hours at 37° C.; luminescence
pEC50: −log10 of the molar value.
Below: a set of entries, each annotated with reported pEC50.

compound: COC(=O)[C@H]1CC[C@H](C(=O)N2CC[C@@]3(S(=O)(=O)c4ccc(F)cc4)c4ccc(OCc5c(Cl)cccc5Cl)cc4CC[C@@H]23)CC1 [Example 169]
pEC50: 7.43
--
compound: CN1CCCC(C(=O)N2CC[C@@]3(S(=O)(=O)c4ccccc4)c4ccc(OCc5c(Cl)cccc5Cl)cc4CC[C@@H]23)C1 (stereo partly drawn) [Example 97]
pEC50: 6.07
--
compound: CS(=O)(=O)CCNC(=O)N1CC[C@@]2(S(=O)(=O)c3ccccc3)c3ccc(OCc4c(Cl)cccc4Cl)cc3CC[C@@H]12 [Example 92]
pEC50: 6.71
--
compound: NC(=O)N1CCC(C(=O)N2CC[C@@]3(S(=O)(=O)c4ccc(F)cc4)c4ccc(OCc5c(Cl)cccc5Cl)cc4CC[C@@H]23)CC1 [Example 172]
pEC50: 7.72
--
compound: O=C(CN1CCCCS1(=O)=O)N1CC[C@@]2(S(=O)(=O)c3ccccc3)c3ccc(OCc4c(Cl)cccc4Cl)cc3CC[C@@H]12 [Example 64]
pEC50: 6.04
--
compound: CS(=O)(=O)CC(=O)N1CC[C@@]2(S(=O)(=O)c3ccc(F)cc3)c3ccc(OCc4cc(Cl)ccc4Cl)cc3CC[C@@H]12 [Example 208]
pEC50: 6.79
--
compound: O=C(C1CCS(=O)(=O)CC1)N1CC[C@@]2(S(=O)(=O)c3ccc(F)cc3)c3ccc(OCc4c(Cl)cccc4Cl)cc3CC[C@@H]12 [Example 128]
pEC50: 7.89
--
compound: C[C@]1(C(=O)N2CC[C@@]3(S(=O)(=O)c4ccc(F)cc4)c4ccc(OCc5cc(Cl)ccc5Cl)cc4CC[C@@H]23)CC[C@H](C(=O)O)CC1 [Example 113]
pEC50: 8.51
--
compound: O=C(CN1CCS(=O)(=O)CC1)N1CC[C@@]2(S(=O)(=O)c3ccc(F)cc3)c3ccc(OCc4cc(F)ccc4Cl)cc3CC[C@@H]12 [Example 180]
pEC50: 7.68
--
compound: O=C(O)C1CCC(C(=O)N2CC[C@@]3(S(=O)(=O)c4ccccc4)c4ccc(OCc5c(Cl)cccc5Cl)cc4CC[C@@H]23)CC1 (stereo partly drawn) [Example 66]
pEC50: 6.57
--
compound: CN1C[C@@H](C(=O)N2CC[C@@]3(S(=O)(=O)c4ccc(F)cc4)c4ccc(OCc5c(F)cccc5C(F)(F)F)cc4CC[C@@H]23)NC1=O [Example 30]
pEC50: 8.41
--
compound: NC(=O)N1CCC(C(=O)N2CC[C@@]3(S(=O)(=O)c4ccc(F)cc4)c4ccc(CCc5c(Cl)cccc5Cl)cc4CC[C@@H]23)CC1 [Example 162]
pEC50: 8.09
